- MEASURED TARGET: T1, recombinant Human IL-17BR-His extracellular domain (human, UniProt Q9NRM6 18-292)
- T1 construct: extracellular domain; also called human IL17BR-his tag protein
- T1 sequence (looked up): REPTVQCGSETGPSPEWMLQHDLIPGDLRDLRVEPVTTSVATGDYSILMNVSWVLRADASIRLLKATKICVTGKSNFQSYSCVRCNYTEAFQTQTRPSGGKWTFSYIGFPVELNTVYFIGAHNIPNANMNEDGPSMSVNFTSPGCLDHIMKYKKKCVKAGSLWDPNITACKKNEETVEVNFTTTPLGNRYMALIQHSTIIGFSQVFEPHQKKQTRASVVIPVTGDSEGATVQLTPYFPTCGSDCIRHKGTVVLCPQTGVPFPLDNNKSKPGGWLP
- EXPERIMENT DESCRIPTION: Biacore T200, antibody captured by anti-human Fc, Human IL17BR-His 20-1.25 nM, 1:1 model
ENDPOINT: kon (M⁻¹ s⁻¹)

BINDER: humanized antibody hD9042 (antibody, V domains shown, Human IgG1/kappa (pHuG1, pHuK vectors); also called lead candidate) VH: QVQLVQSGAEVKKPGASVKVSCKASGYTFISYWMNWVRQAPGQGLEWMGRIDPYDSEIQYNQKFKDRVTMTRDTSISTAYMELSRLRSDDTAVYYCARSGGFDWFAYWGQGTLVTVSS VL: DIQMTQSPSSLSASVGDRVTITCRASENINSNLAWYQQKPGKAPKLLLYDVTNLADGVPSRFSGSGSGTDYTLTISSLQPEDFATYYCQHFWGPPYTFGGGTKVEIK
NUMERIC READOUT: 4.85e+06
//
BINDER: humanized antibody hD9040 (antibody, V domains shown, Human IgG1/kappa (pHuG1, pHuK vectors)) VH: EVQLVQSGAEVKKPGASVKVSCKTSGYTFISYWMNWVRQAPGQGLEWMGRIDPYDSEIQYNQKFKDRVTLTRDTSISTAYMELSRLRSDDTAVYYCARSGGFDWFAYWGQGTLVTVSS VL: DIQMTQSPSSLSASVGDRVTITCRASENINSNLAWYQQKPGKAPKLLLYDVTNLADGVPSRFSGSGSGTDYTLTISSLQPEDFATYYCQHFWGPPYTFGGGTKVEIK
NUMERIC READOUT: 3.42e+06
//
BINDER: humanized antibody hD9041 (antibody, V domains shown, Human IgG1/kappa (pHuG1, pHuK vectors)) VH: EVQLVQSGAEVKKPGASVKVSCKTSGYTFISYWMNWVRQAPGQGLEWMGRIDPYDSEIQYAQKFQGRVTLTRDTSISTAYMELSRLRSDDTAVYYCARSGGFDWFAYWGQGTLVTVSS VL: DIQMTQSPSSLSASVGDRVTITCRASENINSNLAWYQQKPGKAPKLLLYDVTNLADGVPSRFSGSGSGTDYTLTISSLQPEDFATYYCQHFWGPPYTFGGGTKVEIK
NUMERIC READOUT: 3.89e+06
//
BINDER: chimeric antibody cD9001 (antibody, V domains shown, Mouse D9.2 variable domains on human IgG1/kappa constant regions; also called chimeric D9.2) VH: QVQLQQPGAELVRPGASVKLSCKTSGYTFISYWMNWVKQGPEQGLEWIGRIDPYDSEIQYNQKFKDKAILTVDKSSSAAYMQLISLTSEDSAVYYCARSGGFDWFAYWGQGTLVTVSA VL: DIQMTQSPASLSVSVGETVTITCRASENINSNLAWYQQKKGKSPQLLVYDVTNLADGVPSRFSGSGSGTQYSLKINSLQSEDFGSYYCQHFWRPPYTFGGGTNLEIK
NUMERIC READOUT: 2.9e+06
